- Tested on: ALL-SIL (T-Lymphoblastic Leukemia);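 further: after 72 h of two-drug dosing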
- experiment: Bliss excess, mean over the matrix (fraction); higher = more synergy
measuredProperty: Bliss excess
Response field accepts a number only; no unit should be typed.

Take a look at these entries with their results.
# molecule, measuredProperty, quantitativeResult
measured = [
    ("COc1nnc2ccc(N3CCC(c4ccc(OCCN5CCN(C)C(=O)[C@H]5C)cc4)CC3)nn12 [AZD5153] + CN(CC[C@H](CSC1=CC=CC=C1)NC2=C(C=C(C=C2)S(=O)(=O)NC(=O)C3=CC=C(C=C3)N4CCC(CC4)[C@H](C5=CC=CC=C5C6=CC=C(C=C6)Cl)O)S(=O)(=O)C(F)(F)F)CCO [AZD4320] (first compound max 1 µM, 7x7, partner max 1 µM)", "Bliss excess", 0.0324),
    ("Cn1cnc2c(F)c(Nc3ccc(Br)cc3Cl)c(C(=O)NOCCO)cc21 [Selumetinib] + C[C@@H]1COCCN1C2=NC(=NC(=C2)C3(CC3)[S@](=N)(=O)C)C4=C5C=CNC5=NC=C4 [AZD6738] (first compound max 10 µM, 7x7, partner max 10 µM)", "Bliss excess", 0.0106),
]

Bench note: what Bliss excess did NC1(C(=O)N[C@@H](CCO)c2ccc(Cl)cc2)CCN(c2ncnc3[nH]ccc23)CC1 [Capivasertib] + C[C@@H]1COCCN1C2=NC(=NC(=C2)C3(CC3)[S@](=N)(=O)C)C4=C5C=CNC5=NC=C4 [AZD6738] (first compound max 10 µM, 7x7, partner max 10 µM) show?
-0.0322
